- tested-system: DLG4_3, P78352
- Sequence (P78352 306-403): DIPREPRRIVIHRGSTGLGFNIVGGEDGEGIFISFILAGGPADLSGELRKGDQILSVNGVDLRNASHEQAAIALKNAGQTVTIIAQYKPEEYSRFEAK
- procedure-details: holdup assay
- Parameters: key: below the threshold = too weak to quantify, mostly under pKd 3.1 to 4
- test-parameters: plain residues with an end cap or a label only (N-terminal biotin on a linker: ado-ado)
measure: pKd

Example binders with recorded pKd:
YLEPVLSSEL [ATP2A2, P16615;P16615-3]    below the threshold
QSPANIYYKV [EFNB1, P52799]    below the threshold
YRLAQESGLV [ABCC6, O95255]    below the threshold
QGLAERISVL [PRKD2, Q9BZL6]    below the threshold
EVEEFPETSV [TRPV3, Q8NET8]    4.2
NHSSSPETTA [TRMT13, Q9NUP7]    below the threshold
KKAPTNEFYA [SDC4, P31431]    below the threshold
PKRSFIESNV [TANC1, Q9C0D5]    4.27
YYKRPVQEWV [MMP24, Q9Y5R2]    below the threshold
SNAGNTATKA [NOSTRIN, Q8IVI9]    3.5

Supply recorded pKd for NLSIEKETKL [ASNSD1, Q9NWL6] here. below the threshold

Supply recorded pKd for TASPAKETSF [SLC2A7, Q6PXP3] here. below the threshold

Supply recorded pKd for IKAIVDLTGL [TRAF2, Q12933] here. below the threshold

Supply recorded pKd for SAKVRTVTSV [RASL11B, Q9BPW5] here. 4.93

Supply recorded pKd for SKSNFGSEPL [KIF17, Q9P2E2] here. below the threshold

Supply recorded pKd for TACCHSETVV [TGFA, P01135] here. below the threshold

Taken from paper PMC9482650.
